- TARGET: human ether-à-go-go-related gene (hERG) potassium channel (human, UniProt Q12809);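 also: peak tail current of the secondary pulse compared with the same well before compound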
- Sequence (Q12809 whole entry, looked up): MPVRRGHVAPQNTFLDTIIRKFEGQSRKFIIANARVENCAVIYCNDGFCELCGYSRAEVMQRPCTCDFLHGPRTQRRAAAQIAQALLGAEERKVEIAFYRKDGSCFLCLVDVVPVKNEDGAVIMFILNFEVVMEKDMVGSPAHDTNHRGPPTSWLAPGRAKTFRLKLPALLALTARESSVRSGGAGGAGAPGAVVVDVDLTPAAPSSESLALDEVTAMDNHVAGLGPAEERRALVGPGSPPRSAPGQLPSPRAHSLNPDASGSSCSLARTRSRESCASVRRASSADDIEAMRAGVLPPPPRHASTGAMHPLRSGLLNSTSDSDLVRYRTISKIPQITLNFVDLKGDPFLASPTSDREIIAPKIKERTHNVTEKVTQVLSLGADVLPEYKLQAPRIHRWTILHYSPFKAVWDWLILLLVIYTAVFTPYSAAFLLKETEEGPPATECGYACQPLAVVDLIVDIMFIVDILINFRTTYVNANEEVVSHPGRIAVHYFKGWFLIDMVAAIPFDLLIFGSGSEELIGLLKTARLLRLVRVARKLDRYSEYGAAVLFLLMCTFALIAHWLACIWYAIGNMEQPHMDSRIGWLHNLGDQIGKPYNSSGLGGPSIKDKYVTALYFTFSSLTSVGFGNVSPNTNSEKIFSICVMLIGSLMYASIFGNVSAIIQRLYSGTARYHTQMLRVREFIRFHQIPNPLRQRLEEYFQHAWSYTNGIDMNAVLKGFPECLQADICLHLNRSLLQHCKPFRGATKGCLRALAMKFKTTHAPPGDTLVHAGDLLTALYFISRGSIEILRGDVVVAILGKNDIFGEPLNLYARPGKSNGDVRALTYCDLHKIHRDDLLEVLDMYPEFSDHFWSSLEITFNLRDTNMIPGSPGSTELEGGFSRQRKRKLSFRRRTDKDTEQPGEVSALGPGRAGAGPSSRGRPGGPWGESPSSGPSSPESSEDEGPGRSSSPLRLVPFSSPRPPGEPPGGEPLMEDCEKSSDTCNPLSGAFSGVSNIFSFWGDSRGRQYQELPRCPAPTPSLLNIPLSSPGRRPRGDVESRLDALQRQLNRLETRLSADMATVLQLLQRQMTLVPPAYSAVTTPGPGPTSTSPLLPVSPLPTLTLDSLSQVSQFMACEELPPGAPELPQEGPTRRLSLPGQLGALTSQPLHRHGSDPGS
- EXPERIMENT_SUMMARY: primary screen, population patch clamp on CHO cells stably expressing hERG; higher = less effect of the substance
The whole screen tested about 310,000 compounds, of which about 14,000 (4.5%) showed an effect of 50% or more. The effect is printed as a negative number. Many of the other results were omitted from the sample, so strong results are more common in it than they were.
VALUE_TYPE: hERG current change (%, negative = inhibition) at 10uM (%)
Numbers only, in %.

> print(dat)
                                   compound  unit.label  observed.measurement
1  Cc1nn(-c2ccc(F)cc2)c(C)c1CN1CCN(Cc2ccccc2)C(CCO)C1 (centres unmarked)           %                 -44.2

Please give hERG current change (%, negative = inhibition) at 10uM, item by item, for the list that follows.
1. Cc1nn(-c2ccc(F)cc2)c(C)c1CN1CCN(CCc2ccccc2)C(CCO)C1 (centres unmarked)
2. OCCC1CN(Cc2cccc(F)c2F)CCN1CCc1ccccc1 (centres unmarked)
3. C=CCn1cc(C(=O)NCC2CCCO2)c(=O)c2cc(S(=O)(=O)N3CCCCCC3)ccc21 (centres unmarked)
4. Cc1nn(-c2ccc(F)cc2)c(C)c1CN1CCN(CCC(C)C)C(CCO)C1 (centres unmarked)

-67.5
-55.3
-48.1
-36.3
